Species on record: Homo sapiens
Assay comment: Liver toxicity in human assessed as induction of drug-induced liver injury by measuring severity class index; further: key of the grades not given here
The following compounds are shown together with reported DILI_severity_class values.
When you answer, write just the number.

C[N+]1(C)[C@@H]2C[C@@H](OC(=O)[C@H](CO)c3ccccc3)C[C@H]1[C@@H]1O[C@@H]12.[Br-] [METHSCOPOLAMINE BROMIDE] :: 0
C=C1/C(=C\C=C2/CCC[C@]3(C)[C@@H]([C@H](C)CCCC(C)(C)O)CC[C@@H]23)C[C@@H](O)C[C@@H]1O :: 0
COC(=O)C1=C(C)NC(C)=C(C(=O)OCCN(C)Cc2ccccc2)C1c1cccc([N+](=O)[O-])c1 (stereo not given) :: 3

stdin: # query: DILI_severity_class of entry CC(C)NCC(O)c1cc(O)cc(O)c1 (stereo not given)
stdout: 0

stdin: # query: DILI_severity_class of entry `Cn1cnc([N+](=O)[O-])c1Sc1ncnc2nc[nH]c12`
stdout: 5

stdin: # query: DILI_severity_class of entry C/C(=C\c1csc(C)n1)[C@@H]1C[C@@H]2O[C@]2(C)CCC[C@H](C)[C@H](O)[C@@H](C)C(=O)C(C)(C)[C@@H](O)CC(=O)N1 [IXABEPILONE]
stdout: 7

stdin: # query: DILI_severity_class of entry O=C(O)C1N=C(c2ccccc2)c2cc(Cl)ccc2NC1=O (stereo not given) [CLORAZEPIC ACID]
stdout: 3

stdin: # query: DILI_severity_class of entry CCOC(=O)C1=C(COCCN)NC(C)=C(C(=O)OC)C1c1ccccc1Cl (stereo not given)
stdout: 5
